Entries and their measured half-life follow.
protocol_summary: Half life in Sprague-Dawley rat at 5 mg/kg, po or 2 mg/kg, iv
Type: ADME, organism-based
condition: in vivo
Express it in h; write the number only.

COC(=O)N[C@H](C(=O)N1CCC[C@H]1c1ncc(-c2ccc3c(c2)Oc2ccc(-c4cnc([C@@H]5CCCN5C(=O)[C@@H](NC(=O)OC)C(C)C)[nH]4)cc2S3)[nH]1)C(C)C 1.3

Now look at this one.
Task: half-life for COC(=O)N[C@H](C(=O)N1CCC[C@H]1c1ncc(-c2ccc3c(c2)Oc2ccc(-c4cnc([C@@H]5CCCN5C(=O)[C@@H](NC(=O)OC)C(C)C)[nH]4)cc2O3)[nH]1)C(C)C ?
Output: 1.4

###

Entries and their measured bioavailability follow.
protocol_summary: Oral bioavailability in Sprague-Dawley rat at 5 mg/kg
Format: ADME, organism-based
condition: in vivo
Remember to quote the unit after the number.

COC(=O)N[C@H](C(=O)N1CCC[C@H]1c1ncc(-c2ccc3c(c2)Oc2ccc(-c4cnc([C@@H]5CCCN5C(=O)[C@@H](NC(=O)OC)C(C)C)[nH]4)cc2O3)[nH]1)C(C)C 26%

Task: bioavailability for COC(=O)N[C@H](C(=O)N1CCC[C@H]1c1ncc(-c2ccc3c(c2)Oc2ccc(-c4cnc([C@@H]5CCCN5C(=O)[C@@H](NC(=O)OC)C(C)C)[nH]4)cc2S3)[nH]1)C(C)C ?
Output: 25%

###

Test system: Hepatitis C virus
protocol_summary: Antiviral activity against HCV genotype 3a assessed as decrease in HCV replicon RNA replication after 3 days by taqman assay based cell based replicon method
Format: functional, organism-based, Hepacivirus hominis
condition: 72 h
metric: EC50

Past entries and their recorded results:
compound	target	metric	result
COC(=O)N[C@H](C(=O)N1CCC[C@H]1c1ncc(-c2ccc3nc4cc(-c5cnc([C@@H]6CCCN6C(=O)[C@@H](NC(=O)OC)C(C)C)[nH]5)ccc4nc3c2)[nH]1)C(C)C	Hepatitis C virus	EC50	200 pM
COC(=O)N[C@H](C(=O)N1CCC[C@H]1c1ncc(-c2ccc3c(Cl)c4cc(-c5cnc([C@@H]6CCCN6C(=O)[C@@H](NC(=O)OC)C(C)C)[nH]5)ccc4cc3c2)[nH]1)C(C)C	Hepatitis C virus	EC50	600 pM
CCCC/C=C1/c2ccc(-c3cnc([C@@H]4CCCN4C(=O)[C@@H](NC(=O)OC)C(C)C)[nH]3)cc2Oc2ccc(-c3cnc([C@@H]4CCCN4C(=O)[C@@H](NC(=O)OC)C(C)C)[nH]3)cc21	Hepatitis C virus	EC50	400 pM
COC(=O)N[C@H](C(=O)N1CCC[C@H]1c1ncc(-c2ccc3c(c2)Oc2ccc(-c4cnc([C@@H]5CCCN5C(=O)[C@@H](NC(=O)OC)C(C)C)[nH]4)cc2C3C)[nH]1)C(C)C (some centres not stated)	Hepatitis C virus	EC50	80 pM
CCC1c2ccc(-c3cnc([C@@H]4CCCN4C(=O)[C@@H](NC(=O)OC)C(C)C)[nH]3)cc2Oc2ccc(-c3cnc([C@@H]4CCCN4C(=O)[C@@H](NC(=O)OC)C(C)C)[nH]3)cc21 (some centres not stated)	Hepatitis C virus	EC50	70 pM

Task: EC50 for COC(=O)N[C@H](C(=O)N1CCC[C@H]1c1ncc(-c2ccc3c(c2)Oc2ccc(-c4cnc([C@@H]5CCCN5C(=O)[C@@H](NC(=O)OC)C(C)C)[nH]4)cc2C3(C)C)[nH]1)C(C)C ?
Output: 300 pM

Task: EC50 for COC(=O)N[C@H](C(=O)N1CCC[C@H]1c1ncc(-c2ccc3cc4cc(-c5cnc([C@@H]6CCCN6C(=O)[C@@H](NC(=O)OC)C(C)C)[nH]5)ccc4cc3c2)[nH]1)C(C)C ?
Output: 60 pM

Task: EC50 for C/C=C1/c2ccc(-c3cnc([C@@H]4CCCN4C(=O)[C@@H](NC(=O)OC)C(C)C)[nH]3)cc2Oc2ccc(-c3cnc([C@@H]4CCCN4C(=O)[C@@H](NC(=O)OC)C(C)C)[nH]3)cc21 ?
Output: 400 pM

Task: EC50 for COC(=O)N[C@H](C(=O)N1CCC[C@H]1c1ncc(-c2ccc3c(c2)Oc2ccc(-c4cnc([C@@H]5CCCN5C(=O)[C@@H](NC(=O)OC)C(C)C)[nH]4)cc2S3(=O)=O)[nH]1)C(C)C ?
Output: 16000 pM

Task: EC50 for COC(=O)N[C@H](C(=O)N1CCC[C@H]1c1ncc(-c2ccc3c(c2)Oc2ccc(-c4cnc([C@@H]5CCCN5C(=O)[C@@H](NC(=O)OC)C(C)C)[nH]4)cc2N3C)[nH]1)C(C)C ?
Output: 300 pM

Task: EC50 for COC(=O)N[C@H](C(=O)N1CCC[C@H]1c1ncc(-c2ccc3c(c2)Oc2ccc(-c4cnc([C@@H]5CCCN5C(=O)[C@@H](NC(=O)OC)C(C)C)[nH]4)cc2S3)[nH]1)C(C)C ?
Output: 300 pM

Task: EC50 for COC(=O)N[C@H](C(=O)N1CCC[C@H]1c1ncc(-c2ccc3c(C)c4cc(-c5cnc([C@@H]6CCCN6C(=O)[C@@H](NC(=O)OC)C(C)C)[nH]5)ccc4cc3c2)[nH]1)C(C)C ?
Output: 500 pM

###

protocol_summary: Clearance in Sprague-Dawley rat at 5 mg/kg, po or 2 mg/kg, iv
Assay type: ADME, organism-based
condition: in vivo
metric: clearance (mL/min/kg)
Express it in mL/min/kg; write the number only.

COC(=O)N[C@H](C(=O)N1CCC[C@H]1c1ncc(-c2ccc3c(c2)Oc2ccc(-c4cnc([C@@H]5CCCN5C(=O)[C@@H](NC(=O)OC)C(C)C)[nH]4)cc2O3)[nH]1)C(C)C 6.4

Now look at this one.
Task: clearance for COC(=O)N[C@H](C(=O)N1CCC[C@H]1c1ncc(-c2ccc3c(c2)Oc2ccc(-c4cnc([C@@H]5CCCN5C(=O)[C@@H](NC(=O)OC)C(C)C)[nH]4)cc2S3)[nH]1)C(C)C ?
Output: 15

###

Entries and their measured bioavailability follow.
protocol_summary: Oral bioavailability in Sprague-Dawley rat at 10 mg/kg
Assay type: ADME, organism-based
condition: in vivo
Express it in %; write the number only.

Past entries and their recorded results:
COC(=O)N[C@H](C(=O)N1CCC[C@H]1c1ncc(-c2ccc3cc4cc(-c5cnc([C@@H]6CCCN6C(=O)[C@@H](NC(=O)OC)C(C)C)[nH]5)ccc4cc3c2)[nH]1)C(C)C 46
COC(=O)N[C@H](C(=O)N1CCC[C@H]1c1ncc(-c2ccc3c(c2)Oc2ccc(-c4cnc([C@@H]5CCCN5C(=O)[C@@H](NC(=O)OC)C(C)C)[nH]4)cc2C3(C)C)[nH]1)C(C)C 39

Now look at this one.
Task: bioavailability for COC(=O)N[C@H](C(=O)N1CCC[C@H]1c1ncc(-c2ccc3c(c2)Oc2ccc(-c4cnc([C@@H]5CCCN5C(=O)[C@@H](NC(=O)OC)C(C)C)[nH]4)cc2N3C)[nH]1)C(C)C ?
Output: 69

###

System: Hepatitis C virus
protocol_summary: Antiviral activity against HCV genotype 1a expressing NS5A Y93H mutant assessed as decrease in HCV replicon RNA replication after 3 days by taqman assay based cell based replicon method
Assay type: functional, organism-based, Hepacivirus hominis
condition: subtype 1a, 72 h
pEC50: −log10 of the molar value.
Kind request: treat 7 as inclusive, so pEC50 at 7 or higher is 1.0, anything lower is 0.0.

Use these answered entries as a reference point.
molecule	target	label_class
COC(=O)N[C@H](C(=O)N1CCC[C@H]1c1ncc(-c2ccc3c(c2)Oc2ccc(-c4cnc([C@@H]5CCCN5C(=O)[C@@H](NC(=O)OC)C(C)C)[nH]4)cc2S3)[nH]1)C(C)C	Hepatitis C virus	1.0
COC(=O)N[C@H](C(=O)N1CCC[C@H]1c1ncc(-c2ccc3c(c2)Oc2ccc(-c4cnc([C@@H]5CCCN5C(=O)[C@@H](NC(=O)OC)C(C)C)[nH]4)cc2O3)[nH]1)C(C)C	Hepatitis C virus	1.0

Task: Determine whether measured pEC50 meets or exceeds 7 for COC(=O)N[C@H](C(=O)N1CCC[C@H]1c1ncc(-c2ccc3c(c2)Oc2ccc(-c4cnc([C@@H]5CCCN5C(=O)[C@@H](NC(=O)OC)C(C)C)[nH]4)cc2S3(=O)=O)[nH]1)C(C)C
Output: 0.0

Task: Determine whether measured pEC50 meets or exceeds 7 for COC(=O)N[C@H](C(=O)N1CCC[C@H]1c1ncc(-c2ccc3c(c2)C(=O)c2ccc(-c4cnc([C@@H]5CCCN5C(=O)[C@@H](NC(=O)OC)C(C)C)[nH]4)cc2C3=O)[nH]1)C(C)C
Output: 1.0

Task: Determine whether measured pEC50 meets or exceeds 7 for COC(=O)N[C@H](C(=O)N1CCC[C@H]1c1ncc(-c2ccc3nc4cc(-c5cnc([C@@H]6CCCN6C(=O)[C@@H](NC(=O)OC)C(C)C)[nH]5)ccc4cc3c2)[nH]1)C(C)C
Output: 0.0

Task: Determine whether measured pEC50 meets or exceeds 7 for CCCC/C=C1/c2ccc(-c3cnc([C@@H]4CCCN4C(=O)[C@@H](NC(=O)OC)C(C)C)[nH]3)cc2Oc2ccc(-c3cnc([C@@H]4CCCN4C(=O)[C@@H](NC(=O)OC)C(C)C)[nH]3)cc21
Output: 0.0

Task: Determine whether measured pEC50 meets or exceeds 7 for COC(=O)N[C@H](C(=O)N1CCC[C@H]1c1ncc(-c2ccc3c(=O)c4cc(-c5cnc([C@@H]6CCCN6C(=O)[C@@H](NC(=O)OC)C(C)C)[nH]5)ccc4oc3c2)[nH]1)C(C)C
Output: 0.0

Task: Determine whether measured pEC50 meets or exceeds 7 for CCC1c2ccc(-c3cnc([C@@H]4CCCN4C(=O)[C@@H](NC(=O)OC)C(C)C)[nH]3)cc2Oc2ccc(-c3cnc([C@@H]4CCCN4C(=O)[C@@H](NC(=O)OC)C(C)C)[nH]3)cc21 (stereo not given in full)
Output: 1.0
